- MEASURED ON: PI3-kinase p110-delta/p85-alpha (Homo sapiens, UniProt O00329)
- Sequence (P27986 whole entry): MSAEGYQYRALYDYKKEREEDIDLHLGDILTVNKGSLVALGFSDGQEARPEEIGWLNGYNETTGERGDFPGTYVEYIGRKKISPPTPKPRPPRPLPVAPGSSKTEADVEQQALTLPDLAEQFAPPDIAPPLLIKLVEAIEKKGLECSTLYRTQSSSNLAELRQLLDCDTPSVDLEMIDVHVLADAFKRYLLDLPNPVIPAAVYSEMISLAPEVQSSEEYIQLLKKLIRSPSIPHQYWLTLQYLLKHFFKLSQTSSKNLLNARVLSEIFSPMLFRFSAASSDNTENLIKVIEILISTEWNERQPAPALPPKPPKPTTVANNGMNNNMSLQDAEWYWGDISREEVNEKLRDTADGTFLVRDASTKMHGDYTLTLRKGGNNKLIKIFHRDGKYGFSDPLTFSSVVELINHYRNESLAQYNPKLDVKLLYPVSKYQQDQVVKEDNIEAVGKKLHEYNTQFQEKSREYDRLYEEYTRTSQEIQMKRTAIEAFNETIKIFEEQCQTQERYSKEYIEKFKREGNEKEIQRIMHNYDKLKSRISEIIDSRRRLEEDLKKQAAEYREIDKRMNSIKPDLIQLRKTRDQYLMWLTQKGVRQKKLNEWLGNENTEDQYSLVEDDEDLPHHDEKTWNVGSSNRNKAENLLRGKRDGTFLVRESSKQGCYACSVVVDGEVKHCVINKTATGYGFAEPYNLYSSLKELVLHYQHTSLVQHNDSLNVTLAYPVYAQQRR
- Sequence (O00329 whole entry): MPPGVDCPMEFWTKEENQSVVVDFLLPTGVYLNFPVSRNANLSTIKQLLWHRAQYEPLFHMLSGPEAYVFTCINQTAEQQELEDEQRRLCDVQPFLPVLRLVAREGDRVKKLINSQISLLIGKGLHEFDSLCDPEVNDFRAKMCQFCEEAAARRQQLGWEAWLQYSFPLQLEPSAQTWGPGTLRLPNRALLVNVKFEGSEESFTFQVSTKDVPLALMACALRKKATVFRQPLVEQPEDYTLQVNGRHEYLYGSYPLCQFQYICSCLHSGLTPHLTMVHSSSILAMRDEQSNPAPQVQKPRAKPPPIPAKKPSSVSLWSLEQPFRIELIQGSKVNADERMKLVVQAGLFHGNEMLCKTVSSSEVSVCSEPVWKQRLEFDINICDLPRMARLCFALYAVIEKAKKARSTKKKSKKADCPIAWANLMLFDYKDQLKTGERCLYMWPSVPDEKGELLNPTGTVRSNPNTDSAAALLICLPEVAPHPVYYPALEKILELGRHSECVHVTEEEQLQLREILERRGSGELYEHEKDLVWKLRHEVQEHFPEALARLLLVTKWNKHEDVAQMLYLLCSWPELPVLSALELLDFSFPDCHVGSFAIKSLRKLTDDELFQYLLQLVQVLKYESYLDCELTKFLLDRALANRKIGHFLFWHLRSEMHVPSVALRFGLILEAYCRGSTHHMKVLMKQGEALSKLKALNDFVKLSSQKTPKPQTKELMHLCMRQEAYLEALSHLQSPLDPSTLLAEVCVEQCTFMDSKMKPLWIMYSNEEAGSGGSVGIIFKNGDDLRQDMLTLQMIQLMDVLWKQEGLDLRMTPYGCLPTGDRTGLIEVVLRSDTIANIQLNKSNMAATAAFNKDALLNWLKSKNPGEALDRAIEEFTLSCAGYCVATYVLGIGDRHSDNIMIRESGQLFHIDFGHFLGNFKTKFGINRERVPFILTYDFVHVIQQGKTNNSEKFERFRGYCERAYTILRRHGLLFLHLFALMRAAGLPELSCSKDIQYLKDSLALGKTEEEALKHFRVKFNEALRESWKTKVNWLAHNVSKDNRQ
- ASSAY INFO: Inhibition of recombinant human full length PI3K p110delta/p85a using phosphatidylinositol-4, 5-bisphosphate as substrate incubated for 40 mins in presence of [gamma33P]ATP by scintillation counting based radiometry assay
READOUT: IC50

Query the reported IC50 for PI3-kinase p110-delta/p85-alpha (Homo sapiens, UniProt O00329); item: "CC(C)n1cc(C(=O)Nc2ccc(Oc3ccnc(NC(=O)C4CC4)c3)c(F)c2)c(=O)n(-c2ccc(F)cc2)c1=O"
> 1000 nM

====

- MEASURED ON: Epidermal growth factor receptor (Homo sapiens, UniProt P00533)
- Sequence (P00533 whole entry): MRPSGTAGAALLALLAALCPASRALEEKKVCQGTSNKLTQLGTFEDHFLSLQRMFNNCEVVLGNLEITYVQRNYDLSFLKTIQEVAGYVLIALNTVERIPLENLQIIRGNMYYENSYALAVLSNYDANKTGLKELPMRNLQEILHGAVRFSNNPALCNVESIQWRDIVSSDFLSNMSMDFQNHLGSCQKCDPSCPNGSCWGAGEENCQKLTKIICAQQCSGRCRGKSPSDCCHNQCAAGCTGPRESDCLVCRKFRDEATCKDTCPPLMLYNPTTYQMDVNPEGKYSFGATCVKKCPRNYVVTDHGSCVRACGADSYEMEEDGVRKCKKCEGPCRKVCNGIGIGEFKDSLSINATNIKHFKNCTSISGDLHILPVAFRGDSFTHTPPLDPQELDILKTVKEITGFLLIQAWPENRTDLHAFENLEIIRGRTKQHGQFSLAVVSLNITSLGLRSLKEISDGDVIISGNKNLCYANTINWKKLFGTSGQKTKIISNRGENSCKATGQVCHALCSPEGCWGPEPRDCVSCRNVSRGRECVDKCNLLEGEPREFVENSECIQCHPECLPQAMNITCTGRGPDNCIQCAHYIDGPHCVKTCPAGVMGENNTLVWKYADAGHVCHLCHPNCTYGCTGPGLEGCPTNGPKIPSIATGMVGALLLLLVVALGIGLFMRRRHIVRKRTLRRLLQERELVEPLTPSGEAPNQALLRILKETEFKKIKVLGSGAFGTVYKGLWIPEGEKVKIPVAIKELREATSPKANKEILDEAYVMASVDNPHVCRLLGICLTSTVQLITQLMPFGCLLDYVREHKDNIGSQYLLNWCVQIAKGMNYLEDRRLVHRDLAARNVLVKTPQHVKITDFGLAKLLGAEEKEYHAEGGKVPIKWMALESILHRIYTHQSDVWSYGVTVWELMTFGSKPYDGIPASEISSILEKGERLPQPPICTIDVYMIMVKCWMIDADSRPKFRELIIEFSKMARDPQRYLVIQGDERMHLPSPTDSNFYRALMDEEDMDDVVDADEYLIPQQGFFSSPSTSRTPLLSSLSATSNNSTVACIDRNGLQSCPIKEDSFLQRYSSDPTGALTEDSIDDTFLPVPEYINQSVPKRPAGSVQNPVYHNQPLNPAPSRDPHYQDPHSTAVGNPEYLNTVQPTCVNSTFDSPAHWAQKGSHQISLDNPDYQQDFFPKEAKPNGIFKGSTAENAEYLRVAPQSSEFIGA
- ASSAY INFO: Inhibition of recombinant human EGFR (696 to end residues) using poly(Glu, Tyr) 4:1 as substrate incubated for 40 mins in presence of [gamma-33ATP] by scintillation counting based radiometry assay
READOUT: IC50

Query the reported IC50 for Epidermal growth factor receptor (Homo sapiens, UniProt P00533); item: "CC(C)n1cc(C(=O)Nc2ccc(Oc3ccnc(NC(=O)C4CC4)c3)c(F)c2)c(=O)n(-c2ccc(F)cc2)c1=O"
> 1000 nM
